- EXPERIMENT_SUMMARY: Phase 1 study in healthy human volunteers, plasma pharmacokinetics
- Assay type: in vivo
- REPORTED_CONDITIONS: both sexes, human, single dose 1000 mg, oral solution, fasted healthy subjects, read-out: Tmax (hr) AVE ± SD
REPORTED_METRIC: Tmax (h)
Give the value in h but do not write h after it.

Report Tmax, nothing else, for this compound: COc1ccc(-c2ccc(Cn3c(CC(C)(C)C(=O)O)c(SC(C)(C)C)c4cc(OCc5ccccn5)ccc43)cc2)cn1
3

###

- EXPERIMENT_SUMMARY: Phase 1 study in healthy human volunteers, plasma pharmacokinetics
- Format: in vivo
- REPORTED_CONDITIONS: both sexes, human, single dose 300 mg, oral solution, fasted healthy subjects, read-out: Cmax (mM) AVE ± SD
- Procedure: The study is divided into two phases (Single and Multiple Dose Phases). One cohort in the Multiple Dose Phase receives twice daily dosing. Placebo solution to match. The finished aqueous solution is prepared in the clinical study site pharmacy within 24 hours of dosing. The study drug is stored at room temperature between 15-30° C. (59-86° F.) and protected from light. Route of Administration: All doses are administered orally with approximately 100 mL of water rinse. […]
REPORTED_METRIC: Cmax
Give your result as the value with the unit written after it.

Report Cmax, nothing else, for this compound: COc1ccc(-c2ccc(Cn3c(CC(C)(C)C(=O)O)c(SC(C)(C)C)c4cc(OCc5ccccn5)ccc43)cc2)cn1
0.0031 mM
